# experiment_description: Test C: Pharmacokinetic analysis following intravenous administration to cynomolgus monkeys
# Assay type: in vivo, cynomolgus (cyno) monkey
# study_conditions: male, cynomolgus monkey, plasma, iv, 1 mg/kg; read-out: Cyno CL (converted)
measure: clearance (mL/min/kg)
Answers are plain numbers, in mL/min/kg.

Incoming: Give me measured clearance, please, for this molecule: CC(C)(C#Cc1ccc(-c2ccc(Cl)c3c(NS(=O)(=O)C4CC4)nn(CC(F)F)c23)c([C@H](Cc2cc(F)cc(F)c2)NC(=O)Cn2nc(C(F)F)c3c2C(F)(F)[C@@H]2C[C@H]32)n1)S(C)(=O)=O
Outgoing: 3.5

====

# experiment_description: Test C: Pharmacokinetic analysis following intravenous administration to beagle dogs
# Format: in vivo
# study_conditions: male, beagle, dog; IV infusion over 30 minutes, 1 mg/kg; maximum plasma concentration
measure: Cmax
For clarity, give the value followed by its unit.

Incoming: Give me measured Cmax, please, for this molecule: CC(C)(C#Cc1ccc(-c2ccc(Cl)c3c(NS(=O)(=O)C4CC4)nn(CC(F)F)c23)c([C@H](Cc2cc(F)cc(F)c2)NC(=O)Cn2nc(C(F)F)c3c2C(F)(F)[C@@H]2C[C@H]32)n1)S(C)(=O)=O [Compound 38]
Outgoing: 1600 nM

====

# experiment_description: Test B: Cytotoxicity Assay
# study_conditions: human
measure: CC50 at 5 days (µM)
Numbers only, in µM.

Incoming: Give me measured CC50 at 5 days, please, for this compound: CC(C)(C#Cc1ccc(-c2ccc(Cl)c3c(NS(=O)(=O)C4CC4)nn(CC(F)F)c23)c([C@H](Cc2cc(F)cc(F)c2)NC(=O)Cn2nc(C(F)F)c3c2C(F)(F)[C@@H]2C[C@H]32)n1)S(C)(=O)=O
Outgoing: 55.2

====

# experiment_description: Test C: Pharmacokinetic analysis following intravenous administration to beagle dogs
# Type: in vivo
# study_conditions: male, beagle, dog, plasma; IV infusion over 30 minutes, 1 mg/kg; t = 0 to infinity; read-out: Dog AUCinf
measure: AUC(0-inf) (µM·h)
One number for each entry, in µM·h.

Incoming: Give me measured AUC(0-inf), please, for this compound: CC(C)(C#Cc1ccc(-c2ccc(Cl)c3c(NS(=O)(=O)C4CC4)nn(CC(F)F)c23)c([C@H](Cc2cc(F)cc(F)c2)NC(=O)Cn2nc(C(F)F)c3c2C(F)(F)[C@@H]2C[C@H]32)n1)S(C)(=O)=O
Outgoing: 3.3

====

I'd appreciate it if you could supply AUC(0-inf) values for the items below.
# experiment_description: Test C: Pharmacokinetic analysis following intravenous administration to cynomolgus monkeys
# Format: in vivo, cynomolgus (cyno) monkey
# study_conditions: male, cynomolgus monkey, plasma; IV infusion over 30 minutes, 1 mg/kg; t = 0 to infinity; read-out: Cyno AUCinf
For clarity, give the value followed by its unit.

# structure_notation, observed_measurement
data = [
    ("CC(C)(C#Cc1ccc(-c2ccc(Cl)c3c(NS(C)(=O)=O)nn(CC(F)(F)F)c23)c([C@H](Cc2cc(F)cc(F)c2)NC(=O)Cn2nc(C(F)(F)F)c3c2C(F)(F)[C@@H]2C[C@H]32)n1)S(C)(=O)=O", "4.5 µM·h"),
]

Please turn your attention to the following entry.
Incoming: Give me measured AUC(0-inf), please, for this compound: CC(C)(C#Cc1ccc(-c2ccc(Cl)c3c(NS(=O)(=O)C4CC4)nn(CC(F)F)c23)c([C@H](Cc2cc(F)cc(F)c2)NC(=O)Cn2nc(C(F)F)c3c2C(F)(F)[C@@H]2C[C@H]32)n1)S(C)(=O)=O
Outgoing: 4.9 µM·h

====

# experiment_description: Test B: Cytotoxicity Assay
# study_conditions: human, uninfected MT4 cells
measure: CC50 at 5 days (µM)
Answers are plain numbers, in µM.

Incoming: Give me measured CC50 at 5 days, please, for this compound: CC(C)(C#Cc1ccc(-c2ccc(Cl)c3c(NS(C)(=O)=O)nn(CC(F)(F)F)c23)c([C@H](Cc2cc(F)cc(F)c2)NC(=O)Cn2nc(C(F)(F)F)c3c2C(F)(F)[C@@H]2C[C@H]32)n1)S(C)(=O)=O
Outgoing: 30.1

====

# experiment_description: Test C: Pharmacokinetic analysis following intravenous administration to cynomolgus monkeys
# Assay type: in vivo, cynomolgus (cyno) monkey
# study_conditions: male, cynomolgus monkey, plasma; IV infusion over 30 minutes, 1 mg/kg; volume of distribution at steady state; read-out: Cyno Vss
measure: Vd

Incoming: Give me measured Vd, please, for this compound: CC(C)(C#Cc1ccc(-c2ccc(Cl)c3c(NS(=O)(=O)C4CC4)nn(CC(F)F)c23)c([C@H](Cc2cc(F)cc(F)c2)NC(=O)Cn2nc(C(F)F)c3c2C(F)(F)[C@@H]2C[C@H]32)n1)S(C)(=O)=O
Outgoing: 2.1 L/kg

====

# experiment_description: Test C: Pharmacokinetic analysis following intravenous administration to Sprague-Dawley rats
# Assay type: in vivo
# study_conditions: male, Sprague-Dawley, rat, plasma, iv, 1 mg/kg; read-out: Rat t1/2 (converted)
measure: half-life (h)
One number for each entry, in h.

Incoming: Give me measured half-life, please, for this molecule: CC(C)(C#Cc1ccc(-c2ccc(Cl)c3c(NS(=O)(=O)C4CC4)nn(CC(F)F)c23)c([C@H](Cc2cc(F)cc(F)c2)NC(=O)Cn2nc(C(F)F)c3c2C(F)(F)[C@@H]2C[C@H]32)n1)S(C)(=O)=O
Outgoing: 19

====

# experiment_description: Test C: Pharmacokinetic analysis following intravenous administration to cynomolgus monkeys
# Assay type: in vivo, cynomolgus (cyno) monkey
# study_conditions: male, cynomolgus monkey, plasma, iv, 1 mg/kg; read-out: Cyno t1/2 (converted)
measure: half-life
For clarity, give the value followed by its unit.

Incoming: Give me measured half-life, please, for this compound: CC(C)(C#Cc1ccc(-c2ccc(Cl)c3c(NS(=O)(=O)C4CC4)nn(CC(F)F)c23)c([C@H](Cc2cc(F)cc(F)c2)NC(=O)Cn2nc(C(F)F)c3c2C(F)(F)[C@@H]2C[C@H]32)n1)S(C)(=O)=O [Compound 38]
Outgoing: 9.5 h

====

# experiment_description: Test C: Pharmacokinetic analysis following intravenous administration to Sprague-Dawley rats
# Type: in vivo
# study_conditions: male, Sprague-Dawley, rat, plasma; IV infusion over 30 minutes, 1 mg/kg; t = 0 to infinity; read-out: Rat AUCinf
measure: AUC(0-inf) (µM·h)
One number for each entry, in µM·h.

Quick batch: AUC(0-inf) for everything below.
1. CC(C)(C#Cc1ccc(-c2ccc(Cl)c3c(NS(=O)(=O)C4CC4)nn(CC(F)F)c23)c([C@H](Cc2cc(F)cc(F)c2)NC(=O)Cn2nc(C(F)F)c3c2C(F)(F)[C@@H]2C[C@H]32)n1)S(C)(=O)=O [Compound 38]
2. CC(C)(C#Cc1ccc(-c2ccc(Cl)c3c(NS(C)(=O)=O)nn(CC(F)(F)F)c23)c([C@H](Cc2cc(F)cc(F)c2)NC(=O)Cn2nc(C(F)(F)F)c3c2C(F)(F)[C@@H]2C[C@H]32)n1)S(C)(=O)=O [Compound 24]

Outgoing:
[13, 19]

====

# experiment_description: Test C: Pharmacokinetic analysis following intravenous administration to cynomolgus monkeys
# Assay type: in vivo, cynomolgus (cyno) monkey
# study_conditions: male, cynomolgus monkey; IV infusion over 30 minutes, 1 mg/kg; maximum plasma concentration; read-out: Cyno Cmax
measure: Cmax (nM)
One number for each entry, in nM.

# compound, readout_unit, Cmax
rows = [
    ("CC(C)(C#Cc1ccc(-c2ccc(Cl)c3c(NS(=O)(=O)C4CC4)nn(CC(F)F)c23)c([C@H](Cc2cc(F)cc(F)c2)NC(=O)Cn2nc(C(F)F)c3c2C(F)(F)[C@@H]2C[C@H]32)n1)S(C)(=O)=O [Compound 38]", "nM", 1300),
]

Please turn your attention to the following entry.
Incoming: Give me measured Cmax, please, for this compound: CC(C)(C#Cc1ccc(-c2ccc(Cl)c3c(NS(C)(=O)=O)nn(CC(F)(F)F)c23)c([C@H](Cc2cc(F)cc(F)c2)NC(=O)Cn2nc(C(F)(F)F)c3c2C(F)(F)[C@@H]2C[C@H]32)n1)S(C)(=O)=O [Compound 24]
Outgoing: 1300

====

# experiment_description: Test C: Pharmacokinetic analysis following intravenous administration to Sprague-Dawley rats
# Type: in vivo
# study_conditions: male, Sprague-Dawley, rat; IV infusion over 30 minutes, 1 mg/kg; maximum plasma concentration
I'd appreciate it if you could supply Cmax values for the items below.
Answers are plain numbers, in nM.

# compound, observed_measurement
rows = [
    ("CC(C)(C#Cc1ccc(-c2ccc(Cl)c3c(NS(=O)(=O)C4CC4)nn(CC(F)F)c23)c([C@H](Cc2cc(F)cc(F)c2)NC(=O)Cn2nc(C(F)F)c3c2C(F)(F)[C@@H]2C[C@H]32)n1)S(C)(=O)=O [Compound 38]", 2400),
]

Please turn your attention to the following entry.
Incoming: Give me measured Cmax, please, for this compound: CC(C)(C#Cc1ccc(-c2ccc(Cl)c3c(NS(C)(=O)=O)nn(CC(F)(F)F)c23)c([C@H](Cc2cc(F)cc(F)c2)NC(=O)Cn2nc(C(F)(F)F)c3c2C(F)(F)[C@@H]2C[C@H]32)n1)S(C)(=O)=O [Compound 24]
Outgoing: 1800

Sourced from patent US10071985B2
